// data source = PubChem BioAssay (NCI)

- System: KM12 colon
- Assay Details: NCI tumour cell line growth inhibition, 48 h
Result Type: TGI

Use these answered entries as a reference point.
Looking for the measured TGI of CC(C)=CCC/C(C)=C/CC/C(C)=C/C(O)c1ccccc1 (stereo not drawn) , can you help?
51.8 µM

Quick check: TGI of COC(=O)CC(CC(=O)C(=O)OC)C(=O)OC (stereo not drawn) ?
> 100 µM

Record request: TGI value, item Cc1oc2nc(N(C)C)n3c(C)nnc3c2c1C
> 100 µM

Look at this compound and give its reported TGI. COc1cc2c(cc1OCCCN1CCN(CCCOc3cc4c(cc3OC)C(=O)C3CCC[C@H]3C=N4)CC1)N=C[C@@H]1CCCC1C2=O (stereo partly drawn)
> 100 µM

Value lookup for TGI; key = CC1OC(OC2C(OC3CCC4(C)C(CCC5(C)C4CC=C4C6CC(C)(C)CCC6(CO)C(O)CC45C)C3(C)C)OC(C(=O)O)C(OC3OC(COC4OC(CO)C(O)C(O)C4O)C(O)C(O)C3O)C2O)C(O)C(O)C1O (stereo not drawn)
14.1 µM

Look up TGI for this compound: CC1(C)CC[C@]2(C(=O)O)CCC3(C)C(=CCC4[C@@]5(C)CC[C@H](OC6OCC(O)C(O)C6OC6OC(CO)C(O)C(O)C6O)C(C)(C)C5CC[C@]43C)C2C1 (stereo partly drawn)
4.8 µM

Look at this compound and give its reported TGI. CC1(c2nc3ccccc3[nH]2)CCC(CO)C(C)(C)O1 (stereo not drawn)
> 100 µM

# input compound: Cc1ccc(CCCC(=O)O)cc1C ; wanted: its TGI
> 100 µM

Continuing:
What TGI value was documented for this compound, CC(C)Cn1cnnc1NS(=O)(=O)c1cc(C(=O)NN)c(Cl)cc1S ?
> 10 µM

Using the record for Nc1ncn([C@@H]2C=C(CO)C(O)C2O)c(=O)n1 (stereo partly drawn) , report its TGI.
> 100 µM

###

- Tested on: MOLT-4 leukemia
- Assay Details: NCI tumour cell line growth inhibition, 48 h
Here the recorded TGI is given for each entry.

TGI lookup needed for Fc1cccc(C=NC23CC4CC(CC(C4)C2)C3)c1 , thanks.
> 100 µM

Others:
I would be grateful if you could share the reported TGI for COc1ccc(Nc2nc3c(N)cc(C(F)(F)F)cc3nc2-c2ccccc2)cc1 .
> 100 µM

// returns reported TGI for input COC(=O)C12C3C=CC(O3)C1C1C=CC2O1 (stereo unspecified)
> 100 µM

Can you look up the measured TGI of Cc1ccc(S(=O)(=O)OC(C=O)C(O)C(O)COC(c2ccccc2)(c2ccccc2)c2ccccc2)cc1 (stereo unspecified) for me?
46.5 µM

Fill in: TGI of CCOP(=O)(OCC)OC1CC(n2cnc3c(N(CC)CC)ncnc32)OC1CO[Si](C)(C)C(C)(C)C (stereo unspecified) is ___
30.7 µM

###

- Test system: RXF 393 renal
- Assay Details: NCI tumour cell line growth inhibition, 48 h
Where a SMILES comes first, the peptide text is derived from it. The star is where a group is joined. Cbz = O=C(OCc1ccccc1)*; Boc = CC(C)(C)OC(=O)*; OBn = c1ccc(CO*)cc1
Result Type: TGI

Some molecules with recorded TGI:
Given the entry COC(=O)CC(CC(=O)C(=O)OC)C(=O)OC (stereo not drawn) , report its measured TGI.
> 100 µM

Given the entry CCN(CC)c1ccc(/C=C/C2=[N+](C)c3ccccc3C2(C)C)cc1 , report its measured TGI.
16.5 µM

// TGI lookup, key: CCOC(=O)C(NC(=O)Nc1ccccc1F)(OC)C(F)(F)F (stereo not drawn)
> 100 µM

Given COC(=O)[C@H]1[C@H](OC(=O)[C@@H](OC)c2ccccc2)ON2CC[C@@H](OC(=O)c3ccccc3)[C@H]12 , state its recorded TGI.
> 100 µM

Name the reported TGI value associated with the molecule CCOC(=O)C1=C(O)CSC1=Nc1ccc(N=C2SCC(O)=C2C(=O)OCC)cc1
32.6 µM

I would be grateful if you could share the reported TGI for C[C@@H](Oc1cc(-n2cnc3ccc(OCC4CCN(C)CC4)cc32)sc1C(N)=O)c1ccccc1C(F)(F)F .
3.32 µM

New cases:
For the molecule COC(=O)C(CCCCNC(=O)OCc1ccccc1)NC(=O)C(CCC(=O)OCc1ccccc1)NC(=O)OC(C)(C)C (stereo not drawn) (Boc-Glu(OBn)-Lys(Cbz)-OMe; configuration not given here) , what TGI is on record?
> 100 µM

Given the entry [N-]=[N+]=NC1=C(N=[N+]=[N-])c2cccc3cccc(c23)C1=O , report its measured TGI.
> 100 µM

Return reported TGI; argument: CCOC(=O)c1c(-c2ccccc2)[nH]c2ccccc2c1=O
> 100 µM

Value lookup for TGI; key = Cc1ccc2c(c1)C(=O)c1ccc(C)nc1C2=O
> 100 µM

Please report the recorded TGI for CC(=O)NNc1nc(C)c(C(/C=C/c2ccc3c(c2)OCO3)=N/NC(=O)c2ccncc2)s1 .
> 100 µM

Value lookup for TGI; key = COC(=O)C1(c2ccc(OC)cc2)NC(c2ccccc2)C2C(=O)N(c3ccc(OC)cc3)C(=O)C21 (stereo not drawn)
> 100 µM

Item Cc1c(O)c(OC2OC(CO)C(O)C(O)C2O)cc2c1CC[C@@H]1C2(C)C(=O)C[C@]2(C)[C@@H]([C@@](C)(O)C(O)CCC(C)(C)O)[C@H](O)C[C@@]12C (stereo partly drawn) has what recorded TGI?
> 100 µM

Which TGI reading was recorded for the molecule Cn1cc(-c2ccc3c(c2)ncn3-c2ccc(CC(=O)Nc3cc(C(C)(C)C)on3)cc2)cn1 ?
0.908 µM

What value of TGI has been recorded for this entry: COc1ccc2c(c1)CC[C@@H]1C2CC[C@]2(C)C(=O)N(C)C(=O)CC12 (stereo partly drawn)
> 100 µM

Need TGI, item COc1cc2nc(-c3ccc(Cl)cc3)cc(OCCCN3CCC(O)CC3)c2cc1OC
4.07 µM

Dear colleague, I am looking for the recorded TGI of the following molecule: O=C1NCC2=C1CCC1c3ccccc3CCN21 (stereo not drawn)
> 100 µM

Requested field: TGI. Item: N#CCCN(CCC#N)c1ccc(/C=C2\N=C(c3ccccc3)N(NC(=O)c3ccncc3)C2=O)cc1
> 100 µM

Which TGI is reported for this molecule? COc1cc(C2c3cc4c(cc3[C@@H](OCCN)[C@H]3COC(=O)C23)OCO4)cc(OC)c1O (stereo partly drawn)
2.35 µM

Please report the recorded TGI for C#CCSc1nnnn1-c1ccc(Br)c(C)c1 .
> 100 µM

Any idea what its TGI is? The molecule is Nc1ccc(C(=O)O)c2[nH]c3ccccc3c(=O)c12
> 100 µM

Reported TGI, molecule O=C(NCCS(=O)(=O)N1C(=O)C2CCCN2C(=O)[C@@H]1Cc1ccccc1)OCc1ccccc1 (stereo partly drawn) : ____
> 100 µM

Item under review: Nc1nccc(C#Cc2cncnc2Nc2ccc(OCc3cccc(F)c3)c(Cl)c2)n1 . Reported TGI?
8.9 µM

###

- Tested on: SW-620 colon
- Assay Details: NCI tumour cell line growth inhibition, 48 h
Result Type: TGI

Which TGI value is on record for COc1cccc2c(=O)c3c(O)c4cc(N(C)C)ccc4c(OC(C)=O)c3oc12 ?
22.4 µM

More entries:
# lookup: TGI of CCCCC[C@H]1CC=CC(=O)O1
18.7 µM

// query TGI value for entry COc1ccc(-c2c(C(=O)Nc3ccccc3)c(-c3ccccc3)n(C3OC(CO)C(O)C(O)C3O)c(=S)c2C#N)cc1 (stereo not drawn)
> 100 µM

###

- System: U251 CNS
- Assay Details: NCI tumour cell line growth inhibition, 48 h
Recorded TGI, one value per entry.

Could you tell me which TGI is on file for O=C(CN1c2ccccc2Sc2ccccc21)n1cnc2ccccc21 ?
> 100 µM

***
Which TGI is listed for Nc1nc(SCC(=O)c2ccccc2)nc2nc3c(c(-c4ccccc4)c12)CCCC3 ?
> 100 µM

What value of measured TGI is listed for COC12c3ccccc3-c3ccccc3C1[C@@H](C(=O)O)[C@H]2C(=O)O (some centres not stated) ?
> 10 µM

###

Reported TGI values for the following compounds.
- Test system: SF-268 CNS
- Assay Details: NCI tumour cell line growth inhibition, 48 h
Response body: numeric value in µM, unit text excluded.

Take a look at these entries with their results.
Can you share its TGI? I mean this compound: O=C(/C=C/c1cccnc1)/C=C/c1cccnc1
7.77

Look up TGI for this compound: C=C1C(=O)C23C(O)C1CCC2C12CO[C@]3(O)[C@@H](O)C1C(C)(C)CCC2O (some centres undefined)
28.8

# query: TGI of entry CC1(C)CC[C@]2(C(=O)O)CCC3(C)C(=CCC4[C@@]5(C)CC[C@H](OC6OCC(O)C(O)C6OC6OC(CO)C(O)C(O)C6O)C(C)(C)C5CC[C@]43C)C2C1 (some centres undefined)
4.61

Return reported TGI; argument: C=C1C(=O)OC2C3C(=C)[C@@H](OC(C)=O)CC3C(C)=CC(OC(=O)C(C)(O)C(C)OC(C)=O)[C@@H]12 (some centres undefined)
37.9

More entries:
Given the compound COc1ccc(C2=NN(c3ccc(S(N)(=O)=O)cc3)C(c3ccc(Cl)cc3)C2)c(O)c1 (centres undefined) , what is its reported TGI?
25.5
